endpoint_label: melting point

Consider the following illustrative entries.
compound | endpoint_label | reported_measurement
CON1CCC(C#N)(OC(=O)Cc2c(C)cc(C)cc2C)CC1 | melting point | 75 to 78 °C
COC(=O)N(N=Nc1cc(C(F)(F)F)ccc1C#N)c1cc(C(F)(F)F)ccc1C#N | melting point | 88 to 90 °C
CCOc1ccc(Nc2cc(C)nc3cn[nH]c23)cc1 | melting point | 217 °C

Query: So what's the measured melting point for this one? COc1ccc([C@@H](CC(N)=O)N2Cc3ccccc3C2=O)cc1OC
Result: 191 to 193 °C

====

endpoint_label: melting point (°C)

A: O=C1Cc2cc(NC(=O)c3ccccc3[N+](=O)[O-])ccc2N1
B: O=c1n(CC2CN(Cc3ccccc3)CCO2)c2ccccc2n1-c1ccccc1 (centres undefined)
Query: Hi team, can someone confirm which has the larger melting point: A or B ? Thanks. Kindly give the label for the entry you pick.
Result: A
